B1: FBXO34 (parent)
chain: ASSVESTLPVLEASSWKKQVSHDF

variants of: B1; assay: protein stability index of a GFP-peptide fusion (GPS, HEK-293T) (PSI 1-6); higher = more stable; details: c terminus: a fixed tail appended;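 further: lentivirally expressed fusions sorted by FACS into six bins by GFP to DsRed ratio, PSI derived from sequencing read proportions per bin multiplied by bin number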
Here the recorded protein stability index is given for each entry.
Answer with a bare number; do not write a unit.

# count of solved cases: 7
S2G; 2.81
V4P; 2.77
Q19M; 2.27
K17D; 4.16
K18H; 2.39
S21F; 2.89
S6W; 3.02

Switching to the query record.
Req: Look up protein stability index: V10Y
Resp: 1.76
